Collected pKd values appear next to each entry.
Target: recombinant α-synuclein fibrils (human, UniProt P37840 1-140)
Assay: SPR; short, sonicated α-syn fibrils immobilised on a CM5 chip, BiaCore T200; peptides 300 nM to 10 μM in PBS; steady state analysis, 1:1 binding model; apparent Kd
Details: both partners purified
The meaning of pKd here: minus log10 of the concentration in molar units.

>  <binder>
RVGGARVWGVRKKGRKKRRQRRRPQ (designed binder, two-lysine linker; cell penetrating peptide (the methods call it the Tat peptide; detected with an anti-HIV-1 tat antibody); 25 residues; also called R8 peptide; source: synthetic peptide (Genscript or LifeTein)) [R8]

>  <quantitative readout>
6.33

$$$$

Record GAVVWGVTAVKKGRKKRRQRRRPQ (designed binder, two lysine linker; cell penetrating peptide; 24 residues; also called 24-residue peptide) [24mer] . Reported pKd: 5.43

Data credit: paper PMC12019173
